Measured On: Alkaline phosphatase, tissue-nonspecific isozyme (Homo sapiens) (UniProt P05186)
Sequence (P05186 whole entry, looked up): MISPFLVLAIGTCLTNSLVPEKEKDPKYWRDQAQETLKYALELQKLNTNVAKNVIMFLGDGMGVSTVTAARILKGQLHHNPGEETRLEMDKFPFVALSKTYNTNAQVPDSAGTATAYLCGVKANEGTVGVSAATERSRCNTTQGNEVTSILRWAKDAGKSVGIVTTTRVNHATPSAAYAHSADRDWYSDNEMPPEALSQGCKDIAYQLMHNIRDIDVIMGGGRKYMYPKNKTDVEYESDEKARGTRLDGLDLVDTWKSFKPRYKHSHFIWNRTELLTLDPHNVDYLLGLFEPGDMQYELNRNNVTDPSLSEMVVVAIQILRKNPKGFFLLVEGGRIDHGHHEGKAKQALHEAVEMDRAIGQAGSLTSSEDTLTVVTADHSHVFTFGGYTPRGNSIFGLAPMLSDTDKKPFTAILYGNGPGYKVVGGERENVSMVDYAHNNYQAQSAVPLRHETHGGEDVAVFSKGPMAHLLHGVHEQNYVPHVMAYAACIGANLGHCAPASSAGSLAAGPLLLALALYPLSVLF
Test Description: human TNAP enzyme inhibitors, primary screen, biochemical, luminescent, no phosphate acceptor, uHTS (AID 1012);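 further: 0% = DMSO negative control and 100% = EDTA positive control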
Condition Details: purified TNAP, CDP-star luminescence, 30 min; at 20 µM; active compounds read high
Out of some 200,000 compounds screened, about 520 (0.26%) were called active. What follows is part of a selection rich in actives, with near analogues and random picks from the rest.
Readout Label: inhibition (%)
Reply with just the number (in %).

Check out these entries, answers already filled in.
>  <Structure String>
CN(C(=O)CSc1nncc2ccccc12)C1CCCCC1

>  <Unit Abbrev>
%

>  <inhibition>
-7.3

$$$$
>  <Structure String>
COc1ccc(Cn2c(-c3ccc(Cl)cc3)c[n+]3ccccc23)cc1

>  <Unit Abbrev>
%

>  <inhibition>
-2.5

$$$$
>  <Structure String>
COc1ccc(-c2[nH]ncc2CN(Cc2nccn2C)C(C)C)cc1F

>  <Unit Abbrev>
%

>  <inhibition>
-9.7

$$$$
>  <Structure String>
CCN(CCn1cccn1)Cc1cn[nH]c1-c1ccc(OC)cc1F

>  <Unit Abbrev>
%

>  <inhibition>
58.9

$$$$
>  <Structure String>
COc1ccc(NC(=O)COC(=O)c2ccncc2)c(OC)c1

>  <Unit Abbrev>
%

>  <inhibition>
-9.8

$$$$

[Q] Could you please provide reported inhibition for COc1ccc(-c2[nH]ncc2CN(C)Cc2cccnc2)c(F)c1 ? Thanks!
[A] 64.9
